Catalogue of MIC readings, one per entry.
System: Enterococcus faecium X66
Test: MIC, standard agar-dilution assay
Type: cell-based
endpointLabel: MIC

compound: CCN(CC)c1ccc(CN[C@@]2(C)C[C@H](O[C@H]3[C@H](Oc4c5cc6cc4Oc4ccc(cc4Cl)[C@@H](O)[C@@H](NC(=O)[C@@H](CC(C)C)NC)C(=O)N[C@@H](CC(N)=O)C(=O)N[C@H]6C(=O)N[C@H]4C(=O)N[C@H](C(=O)N[C@H](C(=O)O)c6cc(O)cc(O)c6-c6cc4ccc6O)[C@H](O[C@H]4C[C@](C)(N)[C@@H](O)[C@H](C)O4)c4ccc(cc4)O5)O[C@H](CO)[C@@H](O)[C@@H]3O)O[C@@H](C)[C@@H]2O)cc1 [Compound 17]
endpointLabel: MIC
assayValue: 1 µg/mL
--
compound: CCCCCCCCN[C@@]1(C)C[C@H](O[C@H]2[C@H](Oc3c4cc5cc3Oc3ccc(cc3Cl)[C@@H](O)[C@@H](NC(=O)[C@@H](CC(C)C)NC)C(=O)N[C@@H](CC(N)=O)C(=O)N[C@H]5C(=O)N[C@H]3C(=O)N[C@H](C(=O)N[C@H](C(=O)O)c5cc(O)cc(O)c5-c5cc3ccc5O)[C@H](O[C@H]3C[C@](C)(N)[C@@H](O)[C@H](C)O3)c3ccc(cc3)O4)O[C@H](CO)[C@@H](O)[C@@H]2O)O[C@@H](C)[C@@H]1O [Compound 1]
endpointLabel: MIC
assayValue: 1 µg/mL
--
compound: CNC(CC(C)C)C(=O)NC1C(=O)NC(CC(N)=O)C(=O)NC2C(=O)NC3C(=O)NC(C(=O)NC(C(=O)O)c4cc(O)cc(O)c4-c4cc3ccc4O)C(OC3CC(C)(N)C(O)C(C)O3)c3ccc(c(Cl)c3)Oc3cc2cc(c3OC2OC(CO)C(O)C(O)C2OC2CC(C)(NCc3ccc(Br)cc3)C(O)C(C)O2)Oc2ccc(cc2Cl)C1O (stereo not drawn) [Compound 58]
endpointLabel: MIC
assayValue: .25 µg/mL

Source listed as patent US5591714A.
